biological target: UniProt:P35400; assay: Antagonist activity at rat mGluR7 expressed in CHO cells assessed as inhibition of LAP-induced intracellular calcium mobilization by FLIPR
Sequence (P35400 whole entry): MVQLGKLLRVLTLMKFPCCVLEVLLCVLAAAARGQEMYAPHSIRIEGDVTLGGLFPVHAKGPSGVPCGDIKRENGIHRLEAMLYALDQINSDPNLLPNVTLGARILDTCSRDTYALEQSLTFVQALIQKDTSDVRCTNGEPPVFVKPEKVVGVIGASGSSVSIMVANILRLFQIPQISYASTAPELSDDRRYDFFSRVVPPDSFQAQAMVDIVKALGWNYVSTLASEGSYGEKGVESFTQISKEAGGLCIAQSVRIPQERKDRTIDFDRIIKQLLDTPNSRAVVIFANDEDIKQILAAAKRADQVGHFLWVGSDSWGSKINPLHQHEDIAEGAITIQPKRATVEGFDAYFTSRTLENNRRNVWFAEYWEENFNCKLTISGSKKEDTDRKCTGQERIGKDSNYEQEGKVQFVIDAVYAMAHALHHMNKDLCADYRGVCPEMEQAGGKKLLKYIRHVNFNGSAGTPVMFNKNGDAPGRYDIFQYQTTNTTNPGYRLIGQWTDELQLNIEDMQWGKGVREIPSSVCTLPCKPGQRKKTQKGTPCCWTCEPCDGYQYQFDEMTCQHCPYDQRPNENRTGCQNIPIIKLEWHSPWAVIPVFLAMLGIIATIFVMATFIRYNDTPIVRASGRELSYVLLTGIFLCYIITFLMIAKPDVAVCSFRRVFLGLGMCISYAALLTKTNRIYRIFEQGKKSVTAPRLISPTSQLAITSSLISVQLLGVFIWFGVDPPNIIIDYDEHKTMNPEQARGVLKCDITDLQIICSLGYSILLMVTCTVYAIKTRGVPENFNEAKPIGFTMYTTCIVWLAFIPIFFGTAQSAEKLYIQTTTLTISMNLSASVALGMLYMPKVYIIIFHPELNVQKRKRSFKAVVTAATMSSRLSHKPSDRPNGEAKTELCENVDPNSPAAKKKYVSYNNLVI
Form field: IC50 (one value per entry).

These solved cases illustrate the format of a correct answer.
Cn1c(-c2ccccc2)cc2onc(-c3ccccc3)c2c1=O = 20 nM
COc1ccc(-c2cc3onc(-c4ccccc4)c3c(=O)n2C)cc1F = 210 nM
CCn1c(-c2ccccc2)cc2onc(-c3ccccc3)c2c1=O = 910 nM
COc1ccc(-c2cc3onc(-c4ccccc4)c3c(=O)n2C)cc1Br = 580 nM
CC(C)Oc1ccc(-c2cc3onc(-c4ccccc4)c3c(=O)n2C)cc1 = > 10000 nM

Field request: IC50 | item: Cn1c(-c2cccc(C(F)(F)F)c2)cc2onc(-c3ccccc3)c2c1=O
96 nM

Field request: IC50 | item: COc1ccc(-c2cc3onc(-c4ccncc4)c3c(=O)n2C)cc1
26 nM

Field request: IC50 | item: CC(C)n1c(-c2ccccc2)cc2onc(-c3ccccc3)c2c1=O
> 10000 nM

Field request: IC50 | item: CCCc1ccc(-c2cc3onc(-c4ccccc4)c3c(=O)n2C)cc1
150 nM

Field request: IC50 | item: COc1ccc(-c2cc3onc(-c4ccccc4)c3c(=O)n2C)cc1
22 nM
